- System: H22
- Protocol notes: Induction of apoptosis in mouse H22 cells after 48 hrs by annexin V flow cytometry
- Type: functional, cell-based
- Applied conditions: H22, 48 h
Recorded metric: pIC50
Answer as the number alone; pIC50 is minus log10 of concentration in mol/L.

Req: Name the reported pIC50 value associated with the compound `N#C/C(=C\C=C\c1ccccc1)C(=O)NCc1ccccc1`
Resp: 5.49

====

- Test system: MCF7
- Protocol notes: Induction of apoptosis in human MCF7 cells after 48 hrs by annexin V flow cytometry
- Format: functional, cell-based
- Applied conditions: MCF7, 48 h
Recorded metric: pIC50
Please treat pIC50 as minus the base-10 logarithm of the molar concentration.

Req: Given `N#C/C(=C\C=C\c1ccccc1)C(=O)NCc1ccccc1` , state its recorded pIC50.
Resp: 5.27
